# protocol: Murine serum stability assay
# Type: in vitro ADME, mouse
# assay setup: male, CD-1, mouse, mouse serum; cyclic peptides, Table 12; read-out: Murine serum stability assay, T1/2
outcome measure: half-life
The reply must contain the numeric value and, after it, the unit.

// recorded half-life for CCCC[C@@H]1NC(=O)[C@H](CCCNC(=N)N)NC(=O)[C@H](CCCNC(=N)N)NC(=O)[C@H](CC(N)=O)NC(=O)[C@H](CCC(=O)O)NC(=O)[C@@H](NC(=O)[C@H](Cc2c[nH]c3ccccc23)NC(=O)[C@H](CCCNC(=N)N)NC(C)=O)CSSC[C@@H](C(=O)N[C@@H](CCCNC(=N)N)C(=O)N[C@@H](CCC(N)=O)C(=O)N[C@H](C(=O)N[C@@H](CC(C)(C)C)C(=O)O)C(C)(C)C)NC(=O)[C@H]([C@@H](C)O)NC(=O)[C@H](Cc2ccccc2)NC1=O : 39.1 min

The values you see were collected from patent US20260183411A1.
